target desc: human type PPARα ligand-binding domain fused with yeast transcription factor DNA-binding domain (Homo sapiens)
assay comment: Test of transactivation on PPARα (CHO cells, reporter plasmid, CAT activity)
outcome measure: EC50 (nM)

# example entries with known answers
compound: COc1ccc(CC2SC(=O)NC2=O)cc1C(=O)NCc1ccc(Cl)cc1Cl (stereo not drawn) [Example 8]
outcome measure: EC50
measured number: 220

compound: COc1ccc(CC2SC(=O)NC2=O)cc1C(=O)NCc1cccc(OC(F)(F)F)c1 (stereo not drawn) [Example 4]
outcome measure: EC50
measured number: 180

compound: COc1ccc(CC2SC(=O)NC2=O)cc1C(=O)NCc1ccc(Br)cc1 (stereo not drawn) [Example 2]
outcome measure: EC50
measured number: 490

compound: COc1ccc(CC2SC(=O)NC2=O)cc1C(=O)NCc1ccc(Cl)c(Cl)c1 (stereo not drawn) [Example 9]
outcome measure: EC50
measured number: 700

compound: CCOc1ccc(CNC(=O)c2cc(CC3SC(=O)NC3=O)ccc2OC)cc1 (stereo not drawn) [Example 5]
outcome measure: EC50
measured number: 430

[1] COc1ccc(CC2SC(=O)NC2=O)cc1C(=O)NCc1ccc(Cl)cc1 (stereo not drawn) [Example 3]
[2] COc1ccc(CC2SC(=O)NC2=O)cc1C(=O)NCc1ccc(OC(C)C)cc1 (stereo not drawn) [Example 6]
[3] CCCOc1ccc(CNC(=O)c2cc(CC3SC(=O)NC3=O)ccc2OC)cc1 (stereo not drawn) [Example 7]
[4] COc1ccc(CC2SC(=O)NC2=O)cc1C(=O)NCc1ccc([N+](=O)[O-])cc1 (stereo not drawn) [Example 1]
Please give the order of these compounds when sorted by EC50, largest value leading. In plain terms: list the labels in the order you were asked to. 2, 4, 1, 3
(2: 760 nM, 4: 530 nM, 1: 260 nM, 3: 110 nM)

---

Each entry below lists one item and its recorded melting point value.

# example entries with known answers
compound: COc1ccc(CC2SC(=O)NC2=O)cc1C(=O)NCc1ccc(Cl)cc1 (centres unmarked) [Example 3]
melting point: 199 to 201 °C
--
compound: COc1ccc(CC2SC(=O)NC2=O)cc1C(=O)NCc1ccc(Cl)c(Cl)c1 (centres unmarked) (hydrate or solvate) [Example 9]
melting point: 181 to 182 °C
--
compound: COc1ccc(CC2SC(=O)NC2=O)cc1C(=O)NCc1ccc(Br)cc1 (centres unmarked) [Example 2]
melting point: 198 to 200 °C
--
compound: CCOc1ccc(CNC(=O)c2cc(CC3SC(=O)NC3=O)ccc2OC)cc1 (centres unmarked) [Example 5]
melting point: 130 to 132 °C
--
compound: CCCOc1ccc(CNC(=O)c2cc(CC3SC(=O)NC3=O)ccc2OC)cc1 (centres unmarked) (hydrate or solvate) [Example 7]
melting point: 132 to 133 °C
--
compound: COc1ccc(CC2SC(=O)NC2=O)cc1C(=O)NCc1ccc([N+](=O)[O-])cc1 (centres unmarked) [Example 1]
melting point: 236.5 to 238.5 °C
--
compound: COc1ccc(CC2SC(=O)NC2=O)cc1C(=O)NCc1ccc(Cl)cc1Cl (centres unmarked) (hydrate or solvate) [Example 8]
melting point: 188 to 189 °C

Now for the compound whose melting point we want.
// field: melting point; key: COc1ccc(CC2SC(=O)NC2=O)cc1C(=O)NCc1ccc(OC(C)C)cc1 (centres unmarked) (hydrate or solvate) [Example 6] ; value = 79 to 81.5 °C

---

target desc: human type PPARα ligand-binding domain fused with yeast transcription factor DNA-binding domain (Homo sapiens, UniProt Q07869)
Sequence (Q07869 239-466 limits assumed): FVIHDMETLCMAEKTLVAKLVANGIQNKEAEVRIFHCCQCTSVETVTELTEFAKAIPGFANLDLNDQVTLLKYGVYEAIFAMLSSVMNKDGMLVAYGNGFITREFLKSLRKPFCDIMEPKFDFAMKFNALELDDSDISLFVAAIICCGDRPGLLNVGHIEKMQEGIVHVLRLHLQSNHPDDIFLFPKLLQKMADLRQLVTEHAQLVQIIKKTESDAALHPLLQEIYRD
assay comment: Test of transactivation on PPARα (CHO cells, reporter plasmid, CAT activity)
run conditions: read-out: Transactivation PPARα EC50; CHO cells, 24 hours, CAT activity with β-galactosidase internal standard
outcome measure: EC50 (nM)
Express the result in nM but write the number alone.

// field: EC50; key: CCCCC/C=C\C/C=C\C=C\[C@@H](O)C/C=C\CCCC(=O)O [(8S)-HETE, reference compound] ; value = 1300

---

target desc: human PPARγ ligand-binding domain fused with yeast transcription factor DNA-binding domain (Homo sapiens, UniProt P37231)
Sequence (P37231 238-503 limits assumed): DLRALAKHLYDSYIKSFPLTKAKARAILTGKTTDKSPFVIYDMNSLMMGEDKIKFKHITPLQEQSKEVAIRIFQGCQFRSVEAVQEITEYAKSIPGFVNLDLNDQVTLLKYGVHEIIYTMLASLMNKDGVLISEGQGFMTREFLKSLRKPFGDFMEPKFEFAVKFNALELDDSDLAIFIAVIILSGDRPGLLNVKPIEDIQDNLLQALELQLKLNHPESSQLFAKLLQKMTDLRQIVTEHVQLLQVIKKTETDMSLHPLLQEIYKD
assay comment: Test of transactivation on PPARγ (CHO cells, reporter plasmid, CAT activity)
outcome measure: EC50 (µM)

compound: COc1ccc(CC2SC(=O)NC2=O)cc1C(=O)NCc1ccc(Br)cc1 (stereo not drawn)
outcome measure: EC50
measured number: 0.29
//
compound: CCCOc1ccc(CNC(=O)c2cc(CC3SC(=O)NC3=O)ccc2OC)cc1 (stereo not drawn)
outcome measure: EC50
measured number: 1.8
//
compound: CCOc1ccc(CNC(=O)c2cc(CC3SC(=O)NC3=O)ccc2OC)cc1 (stereo not drawn)
outcome measure: EC50
measured number: 0.3

[P] COc1ccc(CC2SC(=O)NC2=O)cc1C(=O)NCc1ccc(Cl)cc1 (stereo not drawn)
[Q] COc1ccc(CC2SC(=O)NC2=O)cc1C(=O)NCc1ccc(Cl)c(Cl)c1 (stereo not drawn)
Hi! Which is lower in terms of EC50, the first one P or the second one Q ? Answer format: the label of the selected item. P

---

target desc: human PPARγ ligand-binding domain fused with yeast transcription factor DNA-binding domain (Homo sapiens)
assay comment: Test of transactivation on PPARγ (CHO cells, reporter plasmid, CAT activity)
pEC50: −log10 of the molar value.
outcome measure: pEC50

# example entries with known answers
compound: COc1ccc(CC2SC(=O)NC2=O)cc1C(=O)NCc1ccc(Cl)cc1Cl (stereo not shown) [Example 8]
outcome measure: pEC50
measured number: 6.55
--
compound: COc1ccc(CC2SC(=O)NC2=O)cc1C(=O)NCc1ccc([N+](=O)[O-])cc1 (stereo not shown) [Example 1]
outcome measure: pEC50
measured number: 5.80

[I] COc1ccc(CC2SC(=O)NC2=O)cc1C(=O)NCc1cccc(OC(F)(F)F)c1 (stereo not shown) [Example 4]
[II] COc1ccc(CC2SC(=O)NC2=O)cc1C(=O)NCc1ccc(OC(C)C)cc1 (stereo not shown) [Example 6]
Rank I against II by their pEC50 values and give the higher one. Answer format: the label of the selected item. II
(II: 6.96, I: 6.44)
